Target: ornithine decarboxylase (ODC) (Rattus norvegicus, UniProt P09057)
Sequence (P09057 1-461): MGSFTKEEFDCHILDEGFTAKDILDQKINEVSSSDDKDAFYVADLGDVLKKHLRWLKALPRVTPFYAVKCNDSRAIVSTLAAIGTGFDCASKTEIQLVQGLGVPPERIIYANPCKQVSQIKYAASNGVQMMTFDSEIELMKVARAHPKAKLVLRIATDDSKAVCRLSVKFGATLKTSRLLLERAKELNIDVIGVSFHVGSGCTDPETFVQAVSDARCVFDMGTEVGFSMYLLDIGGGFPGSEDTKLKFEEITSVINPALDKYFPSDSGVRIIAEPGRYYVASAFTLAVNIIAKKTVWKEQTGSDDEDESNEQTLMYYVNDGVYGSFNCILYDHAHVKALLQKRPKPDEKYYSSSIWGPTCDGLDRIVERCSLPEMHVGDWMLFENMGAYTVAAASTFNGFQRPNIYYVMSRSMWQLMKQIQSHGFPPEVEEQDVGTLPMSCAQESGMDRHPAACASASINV
Structures can show the parent of a compound that is named as a salt.
Recorded measurements of pIC50, one per entry
Keep it numeric: pIC50 is minus log10 of the concentration in mol/L.

The cases that follow already have their pIC50 on record.
- compound: "NOCC1CC(N)C1 (centres unmarked) [Example 8, dihydrochloride]"
  pIC50: 7.70
- compound: "NOC[C@H]1C[C@H](N)C1 [Example 7, dihydrochloride]"
  pIC50: 7.64
- compound: "NO[C@H]1CC[C@H](N)CC1 [Example 1, dihydrochloride]"
  pIC50: 6.66
- compound: "NCC1CC(ON)C1 (centres unmarked)"
  pIC50: 7.28

Name the value of pIC50 reported for NC[C@@H]1C[C@@H]1CON (relative stereo) [Example 10, dihydrochloride] when tested on ornithine decarboxylase (ODC) (Rattus norvegicus, UniProt P09057).
6.33

* * *

test system: human T24 bladder carcinoma cells; assay: Inhibition of proliferation of T24 bladder carcinoma cells (methylene blue staining, 5 days); format: cell-based; settings: T-24, 120 h, 5 days incubation, read-out: Inhibition of T24 cell growth IC50
Counter-ions that a name gives are not always drawn.
Recorded measurements of pIC50, one per entry
Keep it numeric: pIC50 is minus log10 of the concentration in mol/L.

- compound: "NO[C@H]1CCC[C@H](N)C1 (relative stereo) [Example 3, dihydrochloride]"
  pIC50: 4.96
- compound: "NO[C@H]1CC[C@H](N)CC1 [Example 1, dihydrochloride]"
  pIC50: 5.12
- compound: "NOC[C@H]1C[C@H](N)C1 [Example 7, dihydrochloride]"
  pIC50: 5.31

Next, consider the following compound.
Given NOCC1CC(N)C1 (stereo not shown) [Example 8, dihydrochloride] , respond with its pIC50.
5.38
